Cited source: patent US9346809B2

Biological target: TYK2 (aa 871-1187, catalytic domain, GST-tag) (Homo sapiens)
Construct: JAK1 (aa 850-1154) and TYK2 (aa 871-1187) are expressed with an N-terminally fused GST-tag; GST (N); purchased Carna Biosciences, Inc; host or cells: baculovirus expression system
Sequence (P29597 871-1187): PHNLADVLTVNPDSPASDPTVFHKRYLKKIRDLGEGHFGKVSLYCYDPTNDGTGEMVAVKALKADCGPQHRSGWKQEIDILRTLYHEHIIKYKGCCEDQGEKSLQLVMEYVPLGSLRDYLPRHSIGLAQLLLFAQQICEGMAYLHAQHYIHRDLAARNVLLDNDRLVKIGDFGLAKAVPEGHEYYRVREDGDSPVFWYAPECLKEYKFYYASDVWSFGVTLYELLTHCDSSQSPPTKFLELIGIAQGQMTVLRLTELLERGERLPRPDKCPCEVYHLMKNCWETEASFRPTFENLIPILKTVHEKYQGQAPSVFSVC
Test: JAK kinase assay (HTRF, phosphorylation of TK substrate-biotin), TYK2
Format: biochemical
Conditions: ATP at Km (13 μM); read-out: TYK2 kinase inhibitory activity (EC50 indicator)
pEC50: −log10 of the molar value.
Each item that follows carries a reported pEC50.

molecule | pEC50
CS(=O)(=O)c1ccc(C(=O)N2CCN(c3ncnc4[nH]ccc34)CC23CC3)c(F)c1 | > 7.00
O=C(CCC(F)(F)F)N1CCN(c2ncnc3[nH]ccc23)CC12CC2 | 6.30 to 7.00
Cc1c[nH]c2ncnc(N3CCN(C(=O)c4cnc5ccccc5n4)C4(CC4)C3)c12 | < 6.30
O=C(c1cccc2[nH]ccc12)N1CCN(c2ncnc3[nH]ccc23)CC12CC2 | 6.30 to 7.00
N#CCOc1ccc(C(=O)N2CCN(c3ncnc4[nH]ccc34)CC23CC3)cc1 | 6.30 to 7.00
NS(=O)(=O)c1cc(OCC(=O)N2C3CCC2CN(c2ncnc4[nH]ccc24)C3)ccc1Cl | < 6.30
O=C(c1cc2ccccc2[nH]1)N1CCN(c2ncnc3[nH]ccc23)CC12CC2 | 6.30 to 7.00
Cc1ccc2[nH]c(C(=O)N3C4CCC3CN(c3ncnc5[nH]ccc35)C4)cc2c1 | < 6.30
O=C(CC(F)(F)F)N1[C@@H]2CC[C@H]1CN(c1ncnc3[nH]ccc13)C2 | < 6.30
N#Cc1ccc(CC(=O)N2CCN(c3ccnc4[nH]ccc34)CC23CC3)cc1 | < 6.30
CNS(=O)(=O)c1ccc(C(=O)N2CCN(c3ncnc4[nH]ccc34)CC23CC3)cc1 | > 7.00
O=C(C1CCCO1)N1CCN(c2ncnc3[nH]ccc23)CC12CC2 (centres unmarked) | < 6.30
N#CCN1CCCC(C(=O)N2CCN(c3ncnc4[nH]ccc34)CC23CC3)C1 (centres unmarked) | 6.30 to 7.00
Cc1c[nH]c2ncnc(N3CCN(C(=O)c4ccc(C#N)cc4)C4(CC4)C3)c12 | < 6.30
CC(C)(C)OC(=O)N1[C@@H]2CC[C@H]1CN(c1ncnc3[nH]ccc13)C2 | < 6.30
N#Cc1ccc(C(F)(F)C(=O)N2[C@@H]3CC[C@H]2CN(c2ncnc4[nH]ccc24)C3)cc1 | < 6.30
COc1cc(C(=O)N2[C@@H]3CC[C@H]2CN(c2ncnc4[nH]ccc24)C3)cs1 | < 6.30

----------
Target: JAK1 (aa 850-1154, catalytic domain, GST-tag) (Homo sapiens)
Construct: JAK1 (aa 850-1154) and TYK2 (aa 871-1187) are expressed with an N-terminally fused GST-tag; GST (N); purchased Carna Biosciences, Inc; host or cells: baculovirus expression system
Assay: JAK kinase assay (HTRF, phosphorylation of TK substrate-biotin), JAK1
Format: biochemical
Settings: ATP at Km (7 μM); read-out: JAK1 kinase inhibitory activity (EC50 indicator)
In this section, each of the molecules is paired with its reported EC50.

chemical.structure | EC50
N#Cc1ccc(CC(=O)N2[C@@H]3CC[C@@H]2CN(c2ncnc4[nH]ccc24)C3)cc1 | 0.1 to 0.5 µM
C#CCOC(=O)N1[C@@H]2CC[C@H]1CN(c1ncnc3[nH]ccc13)C2 | 0.1 to 0.5 µM
N#Cc1ccc(C(=O)N2[C@@H]3CC[C@H]2CN(c2ncnc4[nH]ccc24)C3)cc1 | < 0.1 µM
CS(=O)(=O)c1ccc(C(=O)N2CCN(c3ncnc4[nH]ccc34)CC23CC3)c(F)c1 | < 0.1 µM
N#CCC(=O)N1CCN(c2ncnc3[nH]ccc23)CC12CC2 | < 0.1 µM
O=C(Cc1ccncc1)N1[C@@H]2CC[C@@H]1CN(c1ncnc3[nH]ccc13)C2 | 0.1 to 0.5 µM
O=C(c1cc2cc(F)cc(F)c2[nH]1)N1CCN(c2ncnc3[nH]ccc23)CC12CC2 | < 0.1 µM
N#CCOc1ccc(CC(=O)N2CCN(c3ncnc4[nH]ccc34)CC23CC3)cc1 | < 0.1 µM

----------
Consider the following compounds and their measured EC50 readings.
Biological target: JAK1 (aa 850-1154, catalytic domain, GST-tag) (Homo sapiens, UniProt P23458)
Construct: JAK1 (aa 850-1154) and TYK2 (aa 871-1187) are expressed with an N-terminally fused GST-tag; GST (N); purchased Carna Biosciences, Inc; host or cells: baculovirus expression system
Sequence (P23458 850-1154): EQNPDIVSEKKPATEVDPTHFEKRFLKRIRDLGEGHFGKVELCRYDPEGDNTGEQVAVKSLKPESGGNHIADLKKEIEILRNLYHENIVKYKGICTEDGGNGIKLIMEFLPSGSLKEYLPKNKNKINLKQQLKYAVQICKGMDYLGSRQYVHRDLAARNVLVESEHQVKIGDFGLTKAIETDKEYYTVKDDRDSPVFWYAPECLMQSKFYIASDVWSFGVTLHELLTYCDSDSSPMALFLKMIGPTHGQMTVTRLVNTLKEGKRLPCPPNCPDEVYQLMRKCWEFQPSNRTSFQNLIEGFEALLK
Experiment: JAK kinase assay (HTRF, phosphorylation of TK substrate-biotin), JAK1
Type: biochemical
Details: ATP at Km (7 μM); read-out: JAK1 kinase inhibitory activity (EC50 indicator)

compound | target.of.assay | EC50
O=C(c1cc2ccccc2s1)N1[C@@H]2CC[C@@H]1CN(c1ncnc3[nH]ccc13)C2 | JAK1 (aa 850-1154, catalytic domain, GST-tag) (Homo sapiens, UniProt P23458) | < 0.1 µM
O=C(c1cnccn1)N1CCN(c2ncnc3[nH]ccc23)CC12CC2 | JAK1 (aa 850-1154, catalytic domain, GST-tag) (Homo sapiens, UniProt P23458) | < 0.1 µM
NS(=O)(=O)c1ccc2[nH]c(C(=O)N3CCN(c4ncnc5[nH]ccc45)CC34CC4)cc2c1 | JAK1 (aa 850-1154, catalytic domain, GST-tag) (Homo sapiens, UniProt P23458) | < 0.1 µM
O=C(Cc1ccccc1)N1[C@@H]2CC[C@H]1CN(c1ncnc3[nH]ccc13)C2 | JAK1 (aa 850-1154, catalytic domain, GST-tag) (Homo sapiens, UniProt P23458) | 0.1 to 0.5 µM
N#CCOc1cccc(CC(=O)N2CCN(c3ncnc4[nH]ccc34)CC23CC3)c1 | JAK1 (aa 850-1154, catalytic domain, GST-tag) (Homo sapiens, UniProt P23458) | 0.1 to 0.5 µM
O=C(c1ccncc1)N1CCN(c2ncnc3[nH]ccc23)CC12CC2 | JAK1 (aa 850-1154, catalytic domain, GST-tag) (Homo sapiens, UniProt P23458) | < 0.1 µM
O=C(C1CCc2ccccc21)N1CCN(c2ncnc3[nH]ccc23)CC12CC2 (centres unmarked) | JAK1 (aa 850-1154, catalytic domain, GST-tag) (Homo sapiens, UniProt P23458) | 0.1 to 0.5 µM
O=C1c2ccccc2CC1C(=O)N1C2CCC1CN(c1ncnc3[nH]ccc13)C2 (centres unmarked) | JAK1 (aa 850-1154, catalytic domain, GST-tag) (Homo sapiens, UniProt P23458) | > 0.5 µM
Cc1cncc(C(=O)N2[C@@H]3CC[C@H]2CN(c2ncnc4[nH]ccc24)C3)n1 | JAK1 (aa 850-1154, catalytic domain, GST-tag) (Homo sapiens, UniProt P23458) | < 0.1 µM
O=C(c1cccc(-c2ccccc2)c1)N1[C@@H]2CC[C@@H]1CN(c1ncnc3[nH]ccc13)C2 | JAK1 (aa 850-1154, catalytic domain, GST-tag) (Homo sapiens, UniProt P23458) | 0.1 to 0.5 µM
N#Cc1ccccc1CC(=O)N1CCN(c2ncnc3[nH]ccc23)CC12CC2 | JAK1 (aa 850-1154, catalytic domain, GST-tag) (Homo sapiens, UniProt P23458) | 0.1 to 0.5 µM
CCOC(=O)NC(=S)N1[C@@H]2CC[C@H]1CN(c1ncnc3[nH]ccc13)C2 | JAK1 (aa 850-1154, catalytic domain, GST-tag) (Homo sapiens, UniProt P23458) | 0.1 to 0.5 µM
Cc1ccc2[nH]c(C(=O)N3C4CCC3CN(c3ncnc5[nH]ccc35)C4)cc2c1 | JAK1 (aa 850-1154, catalytic domain, GST-tag) (Homo sapiens, UniProt P23458) | < 0.1 µM
COC(=O)c1cc2c(N3CCN(C(=O)Cc4cccc(CC#N)c4)C4(CC4)C3)ncnc2[nH]1 | JAK1 (aa 850-1154, catalytic domain, GST-tag) (Homo sapiens, UniProt P23458) | > 0.5 µM
O=C(c1cccc(O)n1)N1CCN(c2ncnc3[nH]ccc23)CC12CC2 | JAK1 (aa 850-1154, catalytic domain, GST-tag) (Homo sapiens, UniProt P23458) | < 0.1 µM
N#Cc1ccc(CC(=O)N2CCN(c3nc(NC(=O)c4ccccc4)nc4[nH]ccc34)CC23CC3)cc1 | JAK1 (aa 850-1154, catalytic domain, GST-tag) (Homo sapiens, UniProt P23458) | > 0.5 µM
O=C(Cc1c[nH]c2ccccc12)N1CCN(c2ncnc3[nH]ccc23)CC12CC2 | JAK1 (aa 850-1154, catalytic domain, GST-tag) (Homo sapiens, UniProt P23458) | 0.1 to 0.5 µM
